# test-target: HGF (hepatocyte growth factor/scatter factor) (UniProt P14210;P14210 P14210:32-494,P14210:495-728)
# Sequence (P14210 32-494, chain 1 of 2): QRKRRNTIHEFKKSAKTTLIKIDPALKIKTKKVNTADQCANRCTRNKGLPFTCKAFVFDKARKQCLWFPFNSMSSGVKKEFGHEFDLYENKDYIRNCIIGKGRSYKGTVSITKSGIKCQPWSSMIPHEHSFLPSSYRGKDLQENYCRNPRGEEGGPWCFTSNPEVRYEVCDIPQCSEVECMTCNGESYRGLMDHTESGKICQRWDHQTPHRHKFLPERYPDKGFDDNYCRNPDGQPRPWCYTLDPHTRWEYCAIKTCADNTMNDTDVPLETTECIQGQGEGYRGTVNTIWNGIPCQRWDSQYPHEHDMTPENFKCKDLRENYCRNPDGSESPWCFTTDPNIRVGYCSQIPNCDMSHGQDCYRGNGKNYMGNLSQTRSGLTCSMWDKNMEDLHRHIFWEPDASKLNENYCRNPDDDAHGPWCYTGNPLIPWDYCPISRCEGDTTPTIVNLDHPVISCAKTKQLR
# Sequence (P14210 495-728, chain 2 of 2): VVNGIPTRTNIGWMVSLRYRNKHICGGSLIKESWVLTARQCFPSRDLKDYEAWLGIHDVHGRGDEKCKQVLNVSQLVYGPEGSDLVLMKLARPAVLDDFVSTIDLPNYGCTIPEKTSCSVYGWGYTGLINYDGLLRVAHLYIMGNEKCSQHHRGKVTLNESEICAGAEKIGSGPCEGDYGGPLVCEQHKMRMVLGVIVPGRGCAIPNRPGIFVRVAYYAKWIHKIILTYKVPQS
# experimental-protocol: filter; HBSMC, 37C
# assay-conditions: tags: R&D Systems
Hi! Could you tag entries with Kd below 0.1 nM as criterion met, and those at or above as criterion not met? Much appreciated.

| binder | class-label |
| --- | --- |
| 8-160 (ssRNA, 2'-F pyrimidines) RNA: GGGAGGACGAUGCGGGUCCCCGAAUUUAAAGUGCGUUUUCCUCCGGGCAGACGACUCGCCCGA | criterion not met |
| 8-118 (ssRNA, 2'-F pyrimidines) RNA: GGGAGGACGAUGCGGGGCGACUUUCCUCCAAUUCUCACCUCUGCACAGACGACUCGCCCGA | criterion not met |
| 8-102 (ssRNA, 2'-F pyrimidines) RNA: GGGAGGACGAUGCGGCGAGUGCCUGUUUAUGUCAUCGUCCGUCGUCAGACGACUCGCCCGA | criterion met |
| 10-11 (ssRNA, 2'-F pyrimidines) RNA: GGGAGAUAAGAAUAAACGCUCAACGCCUGGACCGUUUGUUUAUCCCCGUAGUCUUCGACAGGAGGCUCACAACAGGC | criterion not met |
| 10-48 (ssRNA, 2'-F pyrimidines) RNA: GGGAGAUAAGAAUAAACGCUCAAGAGUUCCCUGUUGACUCGCUCUCCUGACCCUUCGACAGGAGGCUCACAACAGGC | criterion not met |

The measured values listed here are drawn from patent US6344321.
